The origin of these recorded values is patent US5571825A.

We begin with a simple list: items and their reported inhibition at 10 µM.
Biological target: prostaglandin G/H synthase-1 (Ovis aries, UniProt P05979)
Construct: purified from ram seminal vesicles; from tissue; host or cells: ram seminal vesicles
Sequence (P05979 25-600): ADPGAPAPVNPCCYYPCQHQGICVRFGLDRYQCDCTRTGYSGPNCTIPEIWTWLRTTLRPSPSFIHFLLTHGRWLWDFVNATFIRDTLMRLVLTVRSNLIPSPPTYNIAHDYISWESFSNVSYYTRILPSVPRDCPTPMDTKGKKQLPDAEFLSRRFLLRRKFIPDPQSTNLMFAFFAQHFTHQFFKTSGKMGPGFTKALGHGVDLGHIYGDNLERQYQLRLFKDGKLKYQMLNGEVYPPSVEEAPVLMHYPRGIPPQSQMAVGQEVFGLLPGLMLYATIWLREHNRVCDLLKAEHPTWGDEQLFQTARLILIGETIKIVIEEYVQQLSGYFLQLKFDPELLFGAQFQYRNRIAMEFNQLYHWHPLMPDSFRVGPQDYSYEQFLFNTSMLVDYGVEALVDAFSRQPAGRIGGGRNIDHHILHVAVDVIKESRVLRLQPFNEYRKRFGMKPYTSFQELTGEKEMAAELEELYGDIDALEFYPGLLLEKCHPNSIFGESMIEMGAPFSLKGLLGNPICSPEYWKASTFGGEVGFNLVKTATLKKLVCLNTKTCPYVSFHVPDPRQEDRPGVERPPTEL
Test: Inhibition of prostaglandin G/H synthase-1 (conversion of [14C]arachidonic acid to products)
Type: biochemical
Settings: pH 7.4, read-out: % Inhibition of PGHS-1 at 10 μM, 10 μM; enzyme purified from ram seminal vesicles; 15 min preincubation, pH 7.4, room temperature

Here is how some compounds turned out for inhibition at 10 µM.
# compound, inhibition at 10 µM
measured = [
    ("COC(=O)CSC(c1ccc(OC)cc1)c1ccc(OC)cc1", "< 10%"),
    ("COC(=O)CSC(c1ccccc1Cl)c1ccccc1Cl", "< 10%"),
    ("COC(=O)CSC(c1ccccc1)c1ccccc1 [Example 1, Methyl [(diphenylmethyl)thio]acetate]", "20%"),
    ("COC(=O)CSC(c1ccc(F)cc1)c1ccc(F)cc1", "< 10%"),
]

Next compound, inhibition at 10 µM to be filled in.
Prompt line: Name the reported inhibition at 10 µM value associated with the compound `COC(=O)CSC(c1ccc(C)cc1)c1ccc(C)cc1`
Response line: < 10%

###

target: prostaglandin G/H synthase-2 (Ovis aries); construct: purified from sheep placenta; from tissue; host or cells: sheep placenta; test: Inhibition of prostaglandin G/H synthase-2 (conversion of [14C]arachidonic acid to products); assay type: biochemical; details: pH 7.4, read-out: % Inhibition of PGHS-2 at 10 μM, 10 μM; enzyme purified from sheep placenta; 15 min preincubation, pH 7.4, room temperature
Sequence (P79208 17-603): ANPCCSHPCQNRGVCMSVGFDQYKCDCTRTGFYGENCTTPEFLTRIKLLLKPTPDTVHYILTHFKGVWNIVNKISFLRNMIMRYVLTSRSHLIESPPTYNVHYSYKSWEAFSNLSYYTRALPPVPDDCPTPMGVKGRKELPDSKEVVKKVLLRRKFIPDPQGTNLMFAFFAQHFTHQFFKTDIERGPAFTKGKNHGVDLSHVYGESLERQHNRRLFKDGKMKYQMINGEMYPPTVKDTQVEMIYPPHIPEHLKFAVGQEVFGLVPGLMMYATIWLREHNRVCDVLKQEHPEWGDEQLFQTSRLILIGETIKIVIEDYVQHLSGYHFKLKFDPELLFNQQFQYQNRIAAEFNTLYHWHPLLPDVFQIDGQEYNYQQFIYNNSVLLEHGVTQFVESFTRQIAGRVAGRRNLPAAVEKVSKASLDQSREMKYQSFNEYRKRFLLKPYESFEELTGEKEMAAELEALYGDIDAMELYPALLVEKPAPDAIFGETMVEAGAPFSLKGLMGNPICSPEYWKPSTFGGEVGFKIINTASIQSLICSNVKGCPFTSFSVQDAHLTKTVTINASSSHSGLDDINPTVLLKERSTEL
metricName: inhibition at 10 µM (%)
Numbers only here, please. The scale is %.

# compound, valueReported
rows = [
    ("COC(=O)CSC(c1ccccc1OC)c1ccccc1OC [Example 8]", 14),
]

Prompt line: Name the reported inhibition at 10 µM value associated with the compound COC(=O)CSC(c1ccc(C)cc1)c1ccc(C)cc1 [Example 6]
Response line: 11

Prompt line: Entry to check: COC(=O)CSC(c1ccc(OC)cc1)c1ccc(OC)cc1 [Example 2]
Response line: 23

Prompt line: Entry to check: COC(=O)CSC(c1ccccc1)c1ccccc1 [Example 1, Methyl [(diphenylmethyl)thio]acetate]
Response line: 56
